# System: P12-Ichikawa
# Protocol details: cell viability relative to DMSO control; higher = less cytotoxic
# Protocol conditions: HPLM + 10% dialyzed FBS; 48 h; 1.71 µM
Readout: cell viability (%)
API: value field is a number in %; no unit string.

Please review the following examples before continuing.
For COc1cccc2c1C(=O)c1c(O)c3c(c(O)c1C2=O)C[C@@](O)(C(=O)CO)C[C@@H]3O[C@H]1C[C@H](N)[C@H](O)[C@H](C)O1 the molecule record lists cell viability as 58.2

For COC1=C(OCCCN2CCOCC2)C=CC\3=C1/N=C(/NC(=O)C4=CN=C(N)N=C4)N5CC/N=C35 the molecule record lists cell viability as 73.7

For Cc1csc(-c2nnc(Nc3ccc(Oc4ncccc4-c4ccnc(N)n4)cc3)c3ccccc23)c1 the molecule record lists cell viability as 23.2

For CC12CC3CC(C)(C1)CC(N)(C3)C2 the molecule record lists cell viability as 122

For C=C[C@H]1CN2CCC1C[C@@H]2C(O)c1ccnc2ccc(OC)cc12 (stereo partly specified) the molecule record lists cell viability as 133

***
For CC[C@H]1OC(=O)[C@H](C)C(=O)[C@H](C)[C@@H](O[C@H]2O[C@H](C)C[C@H](N(C)C)[C@H]2O)[C@](C)(OC)C[C@@H](C)C(=O)[C@H](C)[C@H]2N(CCCCn3cnc(-c4cccnc4)c3)C(=O)O[C@]12C the molecule record lists cell viability as 98.3

For Cc1ccc([S+](=O)([O-])OCC(=O)Nc2ccc(C(=O)O)c(O)c2)cc1 the molecule record lists cell viability as 136

For OCC(O)C(O)C(O)CO (stereo unspecified) the molecule record lists cell viability as 92.3

For Cc1cccc(Nc2ccncc2[S+](=O)([O-])NC(=O)NC(C)C)c1 the molecule record lists cell viability as 90

For Nc1ncnc2c1ncn2[C@@H]1O[C@H](CO)C[C@H]1O the molecule record lists cell viability as 88.8

For NC[C@H]1O[C@H](O[C@@H]2[C@H](O)[C@@H](O[C@H]3O[C@H](CO)[C@@H](O)[C@H](N)[C@H]3O)[C@H](N)C[C@@H]2N)[C@H](O)[C@@H](O)[C@@H]1O the molecule record lists cell viability as 121

###

Parameter AUC of viability dose-response curve: see the listing below.
# System: P12-Ichikawa
# Protocol details: AUC of viability dose-response curve (% viability x log10 dose units); higher = less sensitive
# Protocol conditions: HPLM + 10% dialyzed FBS; 48 h

Please review the following examples before continuing.
For Cc1cccc(Nc2ccncc2[S+](=O)([O-])NC(=O)NC(C)C)c1 the molecule record lists AUC of viability dose-response curve as 450

For CC(=O)Oc1ccccc1C(=O)Nc1ncc([N+](=O)[O-])s1 the molecule record lists AUC of viability dose-response curve as 457

For Cc1ccnc2c1NC(=O)c1cccnc1N2C1CC1 the molecule record lists AUC of viability dose-response curve as 474

***
For Nc1ncnc2c1ncn2[C@@H]1O[C@H](CO)C[C@H]1O the molecule record lists AUC of viability dose-response curve as 442

For O=C(O)c1cc(/N=N/c2ccc([S+](=O)([O-])Nc3ccccn3)cc2)ccc1O the molecule record lists AUC of viability dose-response curve as 465

###

Parameter cell viability: see the listing below.
# Test system: NOMO1
# Protocol details: cell viability relative to DMSO control; higher = less cytotoxic
# Protocol conditions: HPLM + 10% dialyzed FBS; 48 h; 0.00234 µM
Hey, just the number and the unit after it is fine.

Please review the following examples before continuing.
For CC#CCn1c(N2CCC[C@@H](N)C2)nc2c1c(=O)n(Cc1nc(C)c3ccccc3n1)c(=O)n2C the compound record lists cell viability as 97.2%

For Cc1cc2c(C(N)=O)cccc2n1-c1nc2c(c(NCc3ccccc3)n1)COCC2 the compound record lists cell viability as 124%

For CN(C)CC(C)(C)CNc1nn2c(-c3ccccc3)nnc2cc1C1CCC1 the compound record lists cell viability as 110%

For O=C(O)C(=O)c1cn(Cc2ccccc2)c2ccc(-c3ccc(OC(F)(F)F)cc3)cc12 the compound record lists cell viability as 102%

For CN1CCCN(CC1)C2=CC=C3C(=O)\C(=C/4SC5=C(C=CC=C5)N4C3=N2)C(=O)NCC6=CN=C(C)C=N6 the compound record lists cell viability as 122%

For Cc1csc(-c2nnc(Nc3ccc(Oc4ncccc4-c4ccnc(N)n4)cc3)c3ccccc23)c1 the compound record lists cell viability as 101%

***
For C[C@@H]1CCO[C@H]2CN\3/C=C(/C(=O)NCC4=C(F)C=C(F)C=C4)C(=O)\C(=C3C(=O)N12)O the compound record lists cell viability as 103%

For CCOC(=O)\C1=C\[C@]2(CC)CCCN3CCC4=C([C@H]23)[N]1C5=C4C=CC=C5 the compound record lists cell viability as 118%
